# Subject Of Test: Replicase polyprotein 1ab (Avian infectious bronchitis virus (strain Beaudette CK))
# Sequence (P0C6Y2 2780-3086 limits assumed): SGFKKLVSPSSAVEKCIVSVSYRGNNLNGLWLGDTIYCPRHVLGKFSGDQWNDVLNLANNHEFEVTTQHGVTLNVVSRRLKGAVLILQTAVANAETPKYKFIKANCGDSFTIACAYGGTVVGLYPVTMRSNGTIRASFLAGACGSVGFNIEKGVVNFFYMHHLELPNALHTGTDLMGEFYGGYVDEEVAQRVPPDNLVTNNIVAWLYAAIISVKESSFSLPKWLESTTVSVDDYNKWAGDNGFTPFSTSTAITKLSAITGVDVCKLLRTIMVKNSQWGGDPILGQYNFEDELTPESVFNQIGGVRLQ
# Assay Remarks: FRET protease activity assay
# Description: PF-00835231 was evaluated against 3CLpro from a variety of other coronaviruses representing alpha, beta and gamma groups of Coronaviridae, using biochemical F rster Resonance Energy Transfer (FRET) protease activity assays.
Measured Quantity: Ki (nM)
Entry rule: numbers only, all in nM.

[Q] Identify the reported Ki for the following entry. COc1cccc2[nH]c(C(=O)N[C@@H](CC(C)C)C(=O)N[C@@H](C[C@@H]3CCNC3=O)C(=O)CO)cc12 [WO2005113580-Ex-02]
[A] 4

* * *

# Subject Of Test: Replicase polyprotein 1ab (Human coronavirus HKU1 (isolate N5))
# Sequence (P0C6X4 3285-3587 limits assumed): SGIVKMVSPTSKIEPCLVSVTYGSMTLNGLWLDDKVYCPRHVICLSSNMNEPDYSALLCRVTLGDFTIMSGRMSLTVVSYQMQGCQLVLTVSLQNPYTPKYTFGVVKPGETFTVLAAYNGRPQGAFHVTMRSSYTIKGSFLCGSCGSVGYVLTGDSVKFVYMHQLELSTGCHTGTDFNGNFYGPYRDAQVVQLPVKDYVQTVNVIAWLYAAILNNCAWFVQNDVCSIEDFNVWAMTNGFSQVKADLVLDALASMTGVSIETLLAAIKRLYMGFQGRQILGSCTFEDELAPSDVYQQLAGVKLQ
# Assay Remarks: FRET protease activity assay
Measured Quantity: Ki
Please state the number and follow it with the unit.

[Q] Please report the measured Ki for COc1cccc2[nH]c(C(=O)N[C@@H](CC(C)C)C(=O)N[C@@H](C[C@@H]3CCNC3=O)C(=O)CO)cc12 [WO2005113580-Ex-02]
[A] 0.85 nM
